Assay: Tested for oral absorption in Cynomolgus Monkey at the dose of 10 mg/kg, activity expressed as Cmax
Format: ADME, organism-based, Macaca fascicularis
Set-up: dose 10 mg/kg, route oral
Settings: in vivo
Reported Endpoint: Cmax (nM)
Write it as a number; the unit nM goes unstated.

Field Cmax (entry CCC(=O)Nc1ccc(-c2sc3c(c2CN(C)Cc2ccccc2)c(=O)n(-c2ccccc2)c(=O)n3Cc2c(F)cccc2F)cc1 ) reads 630

Input CCNC(=O)Nc1ccc(-c2sc3c(c2CN(C)Cc2ccccc2)c(=O)n(-c2ccccc2)c(=O)n3Cc2c(F)cccc2F)cc1 . Output Cmax: 63

Sure, the documented Cmax for CONC(=O)Nc1ccc(-c2sc3c(c2CN(C)Cc2ccccc2)c(=O)n(-c2ccccc2)c(=O)n3Cc2c(F)cccc2F)cc1 [SUFUGOLIX] is 210

----------
System: Cynomolgus monkey
Experiment: Tested for oral absorption in Cynomolgus Monkey at the dose of 10 mg/kg, activity expressed as area under curve (AUC)
Assay type: ADME, organism-based, Macaca fascicularis
Set-up: dose 10 mg/kg, route oral
Settings: in vivo
Reported Endpoint: AUC
Output should be the measured figure followed by the unit it is expressed in.

Notebook: CCC(=O)Nc1ccc(-c2sc3c(c2CN(C)Cc2ccccc2)c(=O)n(-c2ccccc2)c(=O)n3Cc2c(F)cccc2F)cc1 , AUC read as 2.5 µM·h

----------
Assay: Tested for oral absorption in Cynomolgus Monkey at the dose of 10 mg/kg, activity expressed as area under curve (AUC)
Assay type: ADME, organism-based, Macaca fascicularis
Set-up: dose 10 mg/kg, route oral
Conditions: in vivo
Consider the following molecules; for each one, report its AUC.
# unit: µM·h | format: bare number

Lab note: CCNC(=O)Nc1ccc(-c2sc3c(c2CN(C)Cc2ccccc2)c(=O)n(-c2ccccc2)c(=O)n3Cc2c(F)cccc2F)cc1 gave AUC of 0.27

The recorded AUC for CONC(=O)Nc1ccc(-c2sc3c(c2CN(C)Cc2ccccc2)c(=O)n(-c2ccccc2)c(=O)n3Cc2c(F)cccc2F)cc1 [SUFUGOLIX] is 0.85

----------
Biological target: Gonadotropin-releasing hormone receptor (Homo sapiens, UniProt P30968)
Sequence (P30968 whole entry): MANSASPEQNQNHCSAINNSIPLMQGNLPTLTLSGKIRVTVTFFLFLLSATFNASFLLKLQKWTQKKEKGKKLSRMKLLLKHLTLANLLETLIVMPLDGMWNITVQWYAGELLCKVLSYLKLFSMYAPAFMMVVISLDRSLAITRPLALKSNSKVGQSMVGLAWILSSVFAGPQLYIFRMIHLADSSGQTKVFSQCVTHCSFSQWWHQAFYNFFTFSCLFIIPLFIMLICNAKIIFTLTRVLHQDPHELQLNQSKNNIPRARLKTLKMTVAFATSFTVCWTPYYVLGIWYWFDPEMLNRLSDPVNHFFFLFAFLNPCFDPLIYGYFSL
Assay: Antagonist concentration required to inhibit specific binding of [125I]leuprorelin to human luteinizing releasing hormone receptor in cloned chinese hamster ovary (CHO) cells.
Reported Endpoint: IC50 (nM)
Dear colleague, please return just the value in nM, with no unit written.

// compound CN(Cc1ccccc1)Cc1c(-c2ccc(NC(=O)c3ccccc3)cc2)sc2c1c(=O)n(-c1ccccc1)c(=O)n2Cc1c(F)cccc1F , assay Gonadotropin-releasing hormone receptor (Homo sapiens, UniProt P30968), IC50 value: 1

Test item COc1cccc(-n2c(=O)c3c(CN(C)Cc4ccccc4)c(-c4ccc(N)cc4)sc3n(Cc3c(F)cccc3F)c2=O)c1 ; Gonadotropin-releasing hormone receptor (Homo sapiens, UniProt P30968); reported IC50 was 1

So the reported IC50 for CC(C)ONC(=O)Nc1ccc(-c2sc3c(c2CN(C)Cc2ccccc2)c(=O)n(-c2ccccc2)c(=O)n3Cc2c(F)cccc2F)cc1 , on Gonadotropin-releasing hormone receptor (Homo sapiens, UniProt P30968), turned out to be 0.6
